molecular target: cynomolgus HER3-ECD-His (cynomolgus monkey) (UniProt G7PIG5); experiment: ELISA on coated Cyno HER3
Sequence (G7PIG5 entry or part of it): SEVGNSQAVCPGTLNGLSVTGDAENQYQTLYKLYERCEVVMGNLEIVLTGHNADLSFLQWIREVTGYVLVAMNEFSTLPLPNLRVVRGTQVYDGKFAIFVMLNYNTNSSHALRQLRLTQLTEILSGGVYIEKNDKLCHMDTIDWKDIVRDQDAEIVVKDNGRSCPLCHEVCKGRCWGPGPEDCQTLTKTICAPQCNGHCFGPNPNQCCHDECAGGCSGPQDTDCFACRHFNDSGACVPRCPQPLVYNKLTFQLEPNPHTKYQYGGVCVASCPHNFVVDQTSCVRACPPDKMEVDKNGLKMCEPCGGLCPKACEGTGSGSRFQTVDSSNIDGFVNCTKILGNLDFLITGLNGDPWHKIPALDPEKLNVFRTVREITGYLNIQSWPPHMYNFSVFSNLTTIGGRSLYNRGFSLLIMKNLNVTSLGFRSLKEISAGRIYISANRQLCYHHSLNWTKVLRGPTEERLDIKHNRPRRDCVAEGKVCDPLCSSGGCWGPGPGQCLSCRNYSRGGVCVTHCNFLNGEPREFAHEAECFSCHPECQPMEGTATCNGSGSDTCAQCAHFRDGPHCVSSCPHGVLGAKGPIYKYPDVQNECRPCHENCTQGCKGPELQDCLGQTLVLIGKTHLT
PROPERTY NAME: OD450 (OD450)
Note: unit OD450 is implicit; provide only the numeric part.

A selection of reference data follows.
- BINDER: "mHE1 (antibody, V domains shown) VH: EVKLQESGPGLVKPSQSLSLTCSVTGYSITSGYYWNWIRQFPGNKLEWMGYISYDGSNNYNPSLKNRISITRDTSKNQFFLNLNSVTTEDTATYYCARVDWDGDAMDYWGQGTSVTVSS VL: DIVLTQSPASLAVSLGQRATISCRASESVDNYGIRLMHWYQQKSGQPPKLLIHRASNLESGIPARFSGSGSRTDFTLTINPVETDDVATYYCQQSNKDPFTFGSGTKLEIKR"
  OD450 / OD450: 1.77
- BINDER: "mHE2 (antibody, V domains shown) VH: EVKLQESGPGLVKPSQSLSLTCSVTGYSITSGYYWNWIRQFPGNKLEWMGYISYDGSNNYNPSLKNRISITRDTSKNQFFLKLNSVTTEDTATYYCARMDWDGDAMDYWGQGTSVTVSS VL: DIVLTQSPASLAVSLGQRATISCRASESVDNYGISLMHWYQQKPGQPPKLLIYRASNLESGIPARFSGSGSRTDFTLTINPVETDDVATYYCQQSNKDPPTFGAGTKLELKR"
  OD450 / OD450: 1.77
- BINDER: "mHE4 (antibody, V domains shown) VH: EVQLVESGGGLVKPGGSLKLSCAASGFTFSSYVMSWVRQTPEKRLEWVATISDGDSSTYYPDNVKGRFTISRDNAKNNLFLQMSHLKSEDTAMYFCARDKGHGYDEGAFVYWGQGTLVTVSA VL: DIQMTQSPASLSASVEETVTITCRASENIYSYLAWYQQKQGKSPQLLVYNAKTLAEGVPSRFSGSGSGTEFSLKINSLQPEDFGSYYCQNHYGTPYTFGGGTKLEIKQ"
  OD450 / OD450: 1.87

Now consider the entry below.
Reported OD450 for mHE6 (antibody, V domains shown) VH: EVQLQQSGPDLVKPGTSVKMSCKASGYTFTDYYMHWVRQSHGKSLEWIGYINPNNGDAIYNQKFKGKATLTVNKSSTTAYMALRSLTSEDSAVYFCATYDYGGDFYFDVWGTGTTVTVSS VL: DIELTQSPALMSASPGEKVTMTCSASSSVSYMYWYQQKPRSSPKPWIYLTSNLASGVPARFSGSGSGTSYSLTISSMEAEDAATYYCQQWSRNPLTFGAGTKLELKR : what is it?
1.51
